PROTOCOL DETAILS: Carbonyl-quenching activity towards HNE in vitro (residual HNE by reverse-phase chromatography)
Assay type: biochemical
ASSAY CONTEXT: 3 h incubation; HNE 50 μM, compound 1 mM, phosphate buffer 10 mM, pH 7.4, 37° C.
Where a SMILES comes first, the peptide text is derived from it. [ ]: non-standard residue; d: D form. Aib = CC(C)(N)C(=O)O
In this section we review reported HNE CONSUMPTION (%) 3 h values for a set of compounds.
PROPERTY NAME: HNE CONSUMPTION (%) 3 h

- NCC1(C(=O)N[C@H](CO)Cc2c[nH]cn2)CCCC1: 83.90
- CC(C)(CCN)C(=O)N[C@H](CO)Cc1c[nH]cn1: 23.05
- CC(C)(CN)C(=O)N[C@@H](Cc1c[nH]cn1)C(=O)O [FLM-04-ACI]: 64.44
- NCC1(C(=O)N[C@H](CO)Cc2c[nH]cn2)CCC1: 84.63
- Cn1cncc1C[C@@H](CO)NC(=O)C(C)(C)CN: 70.08
- CC(C)(N)CC(=O)N[C@@H](Cc1c[nH]cn1)C(=O)O: 6.05
- NCCC(=O)N[C@@H](Cc1cnc[nH]1)C(=O)O [CARNOSINE, L-carnosine, reference compound]: 42.66
- NCC(F)(F)C(=O)N[C@@H](Cc1c[nH]cn1)C(=O)O: 29.42
- CC(C)(CCN)C(=O)N[C@@H](Cc1c[nH]cn1)C(=O)O: 20.43
- NCC(F)(F)C(=O)N[C@H](CO)Cc1c[nH]cn1: 34.93
- CC(C)(CN)C(=O)N[C@H](CO)Cc1c[nH]cn1: 86.47
- CC(C)(CN)C(=O)N[C@@H](Cc1c[nH]cn1)C(=O)O [FLM-12-ACI]: 51.35
- NCC1(C(=O)N[C@@H](Cc2c[nH]cn2)C(=O)O)CCCCC1: 58.03
- NCC1(C(=O)N[C@@H](Cc2c[nH]cn2)C(=O)O)CC1: 36.11
- CC(C)(N)CC(=O)N[C@H](CO)Cc1c[nH]cn1: 10.50
- CC(C)(N)C(=O)N[C@H](CO)Cc1c[nH]cn1: 19.44
- NCC1(C(=O)N[C@@H](Cc2c[nH]cn2)C(=O)O)CCC1: 45.04
- NCC1(C(=O)N[C@H](CO)Cc2c[nH]cn2)CCCCC1: 83.50
- NCC1(C(=O)N[C@H](CO)Cc2c[nH]cn2)CC1: 59.09
- NCC1(C(=O)N[C@@H](Cc2c[nH]cn2)C(=O)O)CCCC1: 53.54
- CC(C)(N)C(=O)N[C@@H](Cc1c[nH]cn1)C(=O)O [FLM-05-ACI] (H-[Aib]-His-OH): 15.84
